test: In vivo biodistribution of radiolabeled complexes in normal athymic mice; settings: non-tumor bearing mice, 1.00 hr; ± SD
metric: percent injected dose per gram, Blood (% ID/g)
Response body: numeric value in % ID/g, unit text excluded.

Consider the reported percent injected dose per gram, Blood for these compounds:
compound	val
O=C(O)CNC(Cc1ccc([N+](=O)[O-])cc1)CN1CCN(CC(=O)O)CCN(CC(=O)O)CC1.[177Lu] (stereo not shown) [^177Lu-C-NE3TA]	0.31
O=C([O-])CNC(Cc1ccc([N+](=O)[O-])cc1)CN1CCN(CC(=O)[O-])CCN(CC(=O)[O-])CC1.[Bi+3] (stereo not shown)	0.13
O=C(O)CNC(Cc1ccc([N+](=O)[O-])cc1)CN1CCN(CC(=O)O)CCN(CC(=O)O)CC1.[90Y] (stereo not shown) [^90Y-C-NE3TA]	0.76

# context switch: different compound, same percent injected dose per gram, Blood
[Q] Give its percent injected dose per gram, Blood value. Item: O=C(O)CNC(Cc1ccc([N+](=O)[O-])cc1)CN1CCN(CC(=O)O)CCN(CC(=O)O)CC1.[153Gd] (stereo not shown) [^153Gd-C-NE3TA]
[A] 0.20

* * *

experiment: In vivo biodistribution of radiolabeled complexes in normal athymic mice; details: non-tumor bearing mice, 4.00 hr; ± SD
metric: percent injected dose per gram, Blood (% ID/g)
Response body: numeric value in % ID/g, unit text excluded.

Consider the reported percent injected dose per gram, Blood for these compounds:
compound	val
O=C(O)CNC(Cc1ccc([N+](=O)[O-])cc1)CN1CCN(CC(=O)O)CCN(CC(=O)O)CC1.[90Y] (stereo not shown) [^90Y-C-NE3TA]	0.05
O=C(O)CNC(Cc1ccc([N+](=O)[O-])cc1)CN1CCN(CC(=O)O)CCN(CC(=O)O)CC1.[153Gd] (stereo not shown) [^153Gd-C-NE3TA]	0.00
O=C([O-])CNC(Cc1ccc([N+](=O)[O-])cc1)CN1CCN(CC(=O)[O-])CCN(CC(=O)[O-])CC1.[Bi+3] (stereo not shown)	0.03

# context switch: different compound, same percent injected dose per gram, Blood
[Q] Give its percent injected dose per gram, Blood value. Item: O=C(O)CNC(Cc1ccc([N+](=O)[O-])cc1)CN1CCN(CC(=O)O)CCN(CC(=O)O)CC1.[177Lu] (stereo not shown) [^177Lu-C-NE3TA]
[A] 0.12

* * *

system: HT29 cells; assay: Antiproliferative activity, MTS assay, HT29 cells; assay type: cell-based, Human; details: Homo sapiens, HT-29, 72 h incubation
One threshold, 8 µM, splits the recorded IC50 values: lower ones are Condition met, equal or higher ones are Condition not met.

Study these solved cases before continuing.
compound	class.label
CC(CCC(=O)Nc1ccc(CC(CN2CCN(CC(=O)O)CCN(CC(=O)O)CC2)NCC(=O)O)cc1)C1CCC2C3C(O)CC4CC(O)CCC4(C)C3CC(O)C12C (stereo not drawn) [CA-NE3TA]	Condition not met
O=C(O)CNC(Cc1ccc([N+](=O)[O-])cc1)CN1CCN(CC(=O)O)CCN(CC(=O)O)CC1 (stereo not drawn) [C-NE3TA]	Condition met
CC(CCC(=O)Nc1ccc(CC(CN2CCN(CC(=O)O)CCN(CC(=O)O)CC2)NCC(=O)O)cc1)C1CCC2C3C(O)CC4CC(O)CCC4(C)C3CCC12C (stereo not drawn) [CDCA-NE3TA]	Condition not met
CC(CCC(=O)Nc1ccc(CC(CN2CCN(CC(=O)O)CCN(CC(=O)O)CC2)NCC(=O)O)cc1)C1CCC2C3CCC4CC(O)CCC4(C)C3CC(O)C12C (stereo not drawn) [DCA-NE3TA]	Condition met
O=C(O)CN1CCN(CCN(CC(=O)O)Cc2ccc([N+](=O)[O-])cc2)CCN(CC(=O)O)CC1 [N-NE3TA]	Condition met

[Q] Take the compound O=C(O)CNCCN1CCN(CC(=O)O)CCN(CC(=O)O)CC1 [NE3TA] and say whether its IC50 is less than 8 µM.
[A] Condition met

* * *

// percent injected dose per gram, Spleen lookup, one value per entry
experiment: In vivo biodistribution of radiolabeled complexes in normal athymic mice; settings: non-tumor bearing mice, 24.00 hr; ± SD
Response body: numeric value in % ID/g, unit text excluded.

Consider the reported percent injected dose per gram, Spleen for these molecules:
molecule	percent injected dose per gram, Spleen (% ID/g)
O=C(O)CNC(Cc1ccc([N+](=O)[O-])cc1)CN1CCN(CC(=O)O)CCN(CC(=O)O)CC1.[153Gd] (stereo not shown) [^153Gd-C-NE3TA]	0.01
O=C(O)CNC(Cc1ccc([N+](=O)[O-])cc1)CN1CCN(CC(=O)O)CCN(CC(=O)O)CC1.[90Y] (stereo not shown) [^90Y-C-NE3TA]	0.07
O=C(O)CNC(Cc1ccc([N+](=O)[O-])cc1)CN1CCN(CC(=O)O)CCN(CC(=O)O)CC1.[177Lu] (stereo not shown) [^177Lu-C-NE3TA]	0.12

# context switch: different molecule, same percent injected dose per gram, Spleen
[Q] Give its percent injected dose per gram, Spleen value. Item: O=C([O-])CNC(Cc1ccc([N+](=O)[O-])cc1)CN1CCN(CC(=O)[O-])CCN(CC(=O)[O-])CC1.[Bi+3] (stereo not shown)
[A] 0.13

* * *

test: In vivo biodistribution of radiolabeled complexes in normal athymic mice; conditions: non-tumor bearing mice, 4.00 hr; ± SD
// percent injected dose per gram, Femur lookup, one value per entry
Give me the value, and tack the unit on after it.

Consider the reported percent injected dose per gram, Femur for these molecules:
molecule	percent injected dose per gram, Femur
O=C(O)CNC(Cc1ccc([N+](=O)[O-])cc1)CN1CCN(CC(=O)O)CCN(CC(=O)O)CC1.[90Y] (stereo not shown) [^90Y-C-NE3TA]	0.30 ± 0.04 % ID/g
O=C(O)CNC(Cc1ccc([N+](=O)[O-])cc1)CN1CCN(CC(=O)O)CCN(CC(=O)O)CC1.[153Gd] (stereo not shown) [^153Gd-C-NE3TA]	0.02 ± 0.01 % ID/g
O=C([O-])CNC(Cc1ccc([N+](=O)[O-])cc1)CN1CCN(CC(=O)[O-])CCN(CC(=O)[O-])CC1.[Bi+3] (stereo not shown)	0.23 ± 0.06 % ID/g

# context switch: different molecule, same percent injected dose per gram, Femur
[Q] Give its percent injected dose per gram, Femur value. Item: O=C(O)CNC(Cc1ccc([N+](=O)[O-])cc1)CN1CCN(CC(=O)O)CCN(CC(=O)O)CC1.[177Lu] (stereo not shown) [^177Lu-C-NE3TA]
[A] 0.36 ± 0.11 % ID/g

* * *

// percent injected dose per gram, Kidney lookup, one value per entry
assay: In vivo biodistribution of radiolabeled complexes in normal athymic mice; settings: non-tumor bearing mice, 1.00 hr; ± SD
Response body: numeric value in % ID/g, unit text excluded.

molecule	percent injected dose per gram, Kidney (% ID/g)
O=C([O-])CNC(Cc1ccc([N+](=O)[O-])cc1)CN1CCN(CC(=O)[O-])CCN(CC(=O)[O-])CC1.[Bi+3] (stereo not shown) [^205/6Bi-C-NE3TA]	4.69
O=C(O)CNC(Cc1ccc([N+](=O)[O-])cc1)CN1CCN(CC(=O)O)CCN(CC(=O)O)CC1.[153Gd] (stereo not shown) [^153Gd-C-NE3TA]	1.13

[Q] Give its percent injected dose per gram, Kidney value. Item: O=C(O)CNC(Cc1ccc([N+](=O)[O-])cc1)CN1CCN(CC(=O)O)CCN(CC(=O)O)CC1.[90Y] (stereo not shown) [^90Y-C-NE3TA]
[A] 2.00

[Q] Give its percent injected dose per gram, Kidney value. Item: O=C(O)CNC(Cc1ccc([N+](=O)[O-])cc1)CN1CCN(CC(=O)O)CCN(CC(=O)O)CC1.[177Lu] (stereo not shown) [^177Lu-C-NE3TA]
[A] 1.57

* * *

assay: In vivo biodistribution of radiolabeled complexes in normal athymic mice; settings: non-tumor bearing mice, 24.00 hr; ± SD
// percent injected dose per gram, Liver lookup, one value per entry
Response body: numeric value in % ID/g, unit text excluded.

compound	val
O=C([O-])CNC(Cc1ccc([N+](=O)[O-])cc1)CN1CCN(CC(=O)[O-])CCN(CC(=O)[O-])CC1.[Bi+3] (stereo not shown)	0.14
O=C(O)CNC(Cc1ccc([N+](=O)[O-])cc1)CN1CCN(CC(=O)O)CCN(CC(=O)O)CC1.[90Y] (stereo not shown) [^90Y-C-NE3TA]	0.10
O=C(O)CNC(Cc1ccc([N+](=O)[O-])cc1)CN1CCN(CC(=O)O)CCN(CC(=O)O)CC1.[177Lu] (stereo not shown) [^177Lu-C-NE3TA]	0.31

# context switch: different compound, same percent injected dose per gram, Liver
[Q] Give its percent injected dose per gram, Liver value. Item: O=C(O)CNC(Cc1ccc([N+](=O)[O-])cc1)CN1CCN(CC(=O)O)CCN(CC(=O)O)CC1.[153Gd] (stereo not shown) [^153Gd-C-NE3TA]
[A] 0.02

* * *

assay: In vitro serum stability of 64Cu-labeled ligands in rat serum (radio-TLC); assay type: in vitro ADME; details: 37° C., incubation time 4 h, n=3
metric: Purity (serum stability, radio-TLC)
Provide a numeric answer; units are not to be included.

Consider the reported Purity (serum stability, radio-TLC) for these compounds:
compound	Purity (serum stability, radio-TLC)
O=C(O)CN1CCN(CCO)CCN(CC(=O)O)CC1.[64Cu] [^64Cu-NBEA]	100
O=C(O)CN1CCN(CCCO)CCN(CC(=O)O)CC1.[64Cu] [^64Cu-NBPA]	97.5
O=C(O)CN1CCN(CCN(CC(=O)O)Cc2ccccc2)CCN(CC(=O)O)CC1.[64Cu] [^64Cu-NE3TA-Bn]	100

# context switch: different compound, same Purity (serum stability, radio-TLC)
[Q] Give its Purity (serum stability, radio-TLC) value. Item: O=C(O)CNCCN1CCN(CC(=O)O)CCN(CC(=O)O)CC1.[64Cu] [^64Cu-NE3TA]
[A] 100

// data source = patent US10189803B2
